# system.tested: Ear-1 (Klebsiella aerogenes, UniProt A0A0H3FRQ3)
# Sequence (A0A0H3FRQ3 entry or part of it): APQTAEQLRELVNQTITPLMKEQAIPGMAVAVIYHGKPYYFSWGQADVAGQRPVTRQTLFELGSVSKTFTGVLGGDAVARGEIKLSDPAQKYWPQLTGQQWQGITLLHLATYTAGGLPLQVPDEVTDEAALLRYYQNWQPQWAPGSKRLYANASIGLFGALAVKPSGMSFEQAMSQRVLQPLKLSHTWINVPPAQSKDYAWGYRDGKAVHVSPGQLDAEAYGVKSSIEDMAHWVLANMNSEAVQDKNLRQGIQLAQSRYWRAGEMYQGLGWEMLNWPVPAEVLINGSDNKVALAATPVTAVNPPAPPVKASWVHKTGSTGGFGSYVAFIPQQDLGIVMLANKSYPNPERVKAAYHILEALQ
# assay.protocol: IC50 of β-lactamase inhibitors, crude extract, Ear-1
# Type: biochemical
recorded.metric: log10 IC50 (log10 of the value in nM)

smiles.code | system.tested | log10 IC50
NCCONC(=O)[C@@H]1CC[C@@H]2CN1C(=O)N2OS(=O)(=O)O | Ear-1 (Klebsiella aerogenes, UniProt A0A0H3FRQ3) | 2.45
O=C(O)c1c(F)ccc2c1OB(O)[C@@H]1C[C@H]21 | Ear-1 (Klebsiella aerogenes, UniProt A0A0H3FRQ3) | 2.34
C[C@]1(Cn2ccnn2)[C@H](C(=O)O)N2C(=O)C[C@H]2S1(=O)=O | Ear-1 (Klebsiella aerogenes, UniProt A0A0H3FRQ3) | 4.86
O=C(O)C[C@@H]1CC[C@H](NC(=O)Cc2cccs2)B(O)O1 | Ear-1 (Klebsiella aerogenes, UniProt A0A0H3FRQ3) | 2.92
CC1=C[C@@H]2CN(C(=O)N2OS(=O)(=O)O)[C@@H]1C(N)=O | Ear-1 (Klebsiella aerogenes, UniProt A0A0H3FRQ3) | 0.78
O=C(NC1CCNCC1)[C@@H]1CC[C@@H]2CN1C(=O)N2OS(=O)(=O)O | Ear-1 (Klebsiella aerogenes, UniProt A0A0H3FRQ3) | 2.95
O=C(NNC(=O)[C@@H]1CC[C@@H]2CN1C(=O)N2OS(=O)(=O)O)[C@@H]1CCCNC1 | Ear-1 (Klebsiella aerogenes, UniProt A0A0H3FRQ3) | 2.08
NC(=O)[C@@H]1CC[C@@H]2CN1C(=O)N2OS(=O)(=O)O | Ear-1 (Klebsiella aerogenes, UniProt A0A0H3FRQ3) | 2.94

====

# system.tested: CMY-2 (Klebsiella pneumoniae)
# Construct: made in house; host or cells: E. coli TOP10, plasmid pUCp24
# Sequence (Q48434 21-381): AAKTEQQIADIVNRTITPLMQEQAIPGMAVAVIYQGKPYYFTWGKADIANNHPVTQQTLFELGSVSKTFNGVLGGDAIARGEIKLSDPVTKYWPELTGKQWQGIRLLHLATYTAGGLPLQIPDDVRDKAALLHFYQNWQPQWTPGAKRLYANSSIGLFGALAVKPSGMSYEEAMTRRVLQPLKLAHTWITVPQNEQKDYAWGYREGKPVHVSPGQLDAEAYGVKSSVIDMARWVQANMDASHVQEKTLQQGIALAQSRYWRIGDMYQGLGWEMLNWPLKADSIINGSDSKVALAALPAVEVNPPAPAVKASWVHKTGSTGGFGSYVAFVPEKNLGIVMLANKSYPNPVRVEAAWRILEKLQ
# assay.protocol: biochemical
# Design: species or system Citrobacter spp.
# condition.details: CMY-2; crude extract of E. coli TOP10 recombinant strain; mean of triplicate; read-out: IC50

compound | readout.unit | IC50
Cn1cc[n+](C[C@@]2(C)[C@H](C(=O)[O-])N3C(=O)C[C@H]3S2(=O)=O)n1 [Enmetazobactam, enmetazobactam] | µM | 40

====

# system.tested: ADC-50 (Acinetobacter baumannii, UniProt Q6DRA1)
# assay.protocol: IC50 of β-lactamase inhibitors, crude extract, ADC-50
# Assay type: biochemical, A. baumannii
# condition.details: read-out: IC50 value; ADC-50 of A. baumannii

molecule | system.tested | IC50
CC1=C[C@@H]2CN(C(=O)N2OS(=O)(=O)O)[C@@H]1C(N)=O [Durlobactam, durlobactam] | ADC-50 (Acinetobacter baumannii, UniProt Q6DRA1) | 0.17 nM

====

# system.tested: SRT-1 (Serratia marcescens, UniProt P18539)
# Sequence (P18539 22-376): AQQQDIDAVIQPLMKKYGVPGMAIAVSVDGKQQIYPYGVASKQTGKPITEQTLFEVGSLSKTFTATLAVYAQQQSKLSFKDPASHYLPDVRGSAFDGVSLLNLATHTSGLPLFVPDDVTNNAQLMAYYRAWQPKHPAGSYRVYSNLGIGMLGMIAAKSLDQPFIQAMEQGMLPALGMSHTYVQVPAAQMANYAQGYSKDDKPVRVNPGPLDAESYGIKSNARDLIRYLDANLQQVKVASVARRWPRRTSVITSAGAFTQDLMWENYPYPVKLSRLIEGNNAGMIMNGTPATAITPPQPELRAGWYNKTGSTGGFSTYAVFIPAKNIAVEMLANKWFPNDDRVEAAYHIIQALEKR
# assay.protocol: IC50 of β-lactamase inhibitors, crude extract, SRT-1
# Assay type: biochemical
# condition.details: crude extract of E. coli TOP10 recombinant strain, mean of triplicate, read-out: IC50
pIC50: −log10 of the molar value.

smiles.code | result.qualifier | pIC50
Cn1cc[n+](C[C@@]2(C)[C@H](C(=O)[O-])N3C(=O)C[C@H]3S2(=O)=O)n1 | < | 4.00
NCCN[C@H]1CC[C@H](CC(=O)N[C@H]2Cc3cccc(C(=O)O)c3OB2O)CC1 | = | 7.22
